Where these numbers come from: ChEMBL document CHEMBL2203071

Target: Thioredoxin (Homo sapiens)
Sequence (P10599 whole entry): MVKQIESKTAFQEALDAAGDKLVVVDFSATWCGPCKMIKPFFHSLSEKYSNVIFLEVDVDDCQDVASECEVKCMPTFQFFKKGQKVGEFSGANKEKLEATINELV
Assay: Inhibition of human recombinant TRX-1 up to 60 mins by insulin reduction assay
reportedProperty: Ki (µM)
Supply the numeric figure in µM, leaving out any unit text.

[ask] Sample CC(C)=CCC[C@]1(C)C=Cc2c(O)c3c(c(CC=C(C)C)c2O1)O[C@]12C(=C[C@@H]4C[C@H]1C(C)(C)O[C@@]2(C/C=C(/C)C(=O)O)C4=O)C3=O [GAMBOGIC ACID] — what was its Ki?
[reply] 3.11

---

Target: Thioredoxin, mitochondrial (Homo sapiens)
Sequence (Q99757 whole entry): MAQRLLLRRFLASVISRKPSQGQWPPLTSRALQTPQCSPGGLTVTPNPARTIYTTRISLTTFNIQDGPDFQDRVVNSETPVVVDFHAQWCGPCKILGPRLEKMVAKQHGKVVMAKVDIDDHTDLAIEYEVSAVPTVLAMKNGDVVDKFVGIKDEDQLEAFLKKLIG
Assay: Inhibition of human recombinant TRX-2 up to 60 mins by insulin reduction assay
reportedProperty: Ki (nM)
Supply the numeric figure in nM, leaving out any unit text.

[ask] Sample CC(C)=CCC[C@]1(C)C=Cc2c(O)c3c(c(CC=C(C)C)c2O1)O[C@]12C(=C[C@@H]4C[C@H]1C(C)(C)O[C@@]2(C/C=C(/C)C(=O)O)C4=O)C3=O — what was its Ki?
[reply] 1310

---

target: Thioredoxin, mitochondrial (Homo sapiens) (UniProt Q99757); test: Covalent binding affinity to human recombinant TRX-2 assessed as change in protein configuration at 0.05 mM by MALDITOF mass spectrometry
Activity calls are given as the source filed them. The calls are words filed in the database; no cut-off is given here.
Returns: one label drawn from active, inactive

The following molecules have reported results that may help.
{"molecule": "CC(C)=CCC[C@]1(C)C=Cc2c(O)c3c(c(CC=C(C)C)c2O1)O[C@]12C(C[C@@H]4C[C@H]1C(C)(C)O[C@@]2(C/C=C(/C)C(=O)O)C4=O)C3=O (stereo partly specified)", "classAssignment": "inactive"}
{"molecule": "CC(C)=CCC/C(C)=C/Cc1c(O)c(CC=C(C)C)c2c(c1O)C(=O)C1=C[C@@H]3C[C@H]4C(C)(C)O[C@@](C/C=C(/C)C(=O)O)(C3=O)[C@@]14O2", "classAssignment": "active"}
{"molecule": "CC(C)=CCC[C@]1(C)C=Cc2c(O)c3c(c(CC=C(C)C)c2O1)O[C@]12C(C3=O)[C@@H](S(=O)(=O)O)[C@@H]3C[C@H]1C(C)(C)O[C@@]2(C/C=C(/C)C(=O)O)C3=O (stereo partly specified)", "classAssignment": "inactive"}

[ask] What did the test return for CC(C)=CCC[C@]1(C)C=Cc2c(O)c3c(c(CC=C(C)C)c2O1)O[C@]12C(=C[C@@H]4C[C@H]1C(C)(C)O[C@@]2(C/C=C(/C)C(=O)O)C4=O)C3=O ?
[reply] active

[ask] What did the test return for CC(C)=CCC[C@]1(C)C=Cc2c(O)c3c(c(CC=C(C)C)c2O1)O[C@]12C(C3=O)[C@H](S(=O)(=O)O)[C@@H]3C[C@H]1C(C)(C)O[C@@]2(C/C=C(/C)C(=O)O)C3=O (stereo partly specified) ?
[reply] inactive

[ask] What did the test return for CC(C)=CCC[C@]1(C)C=Cc2c(O)c3c(c(CC=C(C)C)c2O1)O[C@]12C(C3=O)C(O)[C@@H]3C[C@H]1C(C)(C)O[C@@]2(C/C=C(/C)C(=O)O)C3=O (stereo partly specified) ?
[reply] inactive

---

target: Thioredoxin (Homo sapiens); test: Covalent binding affinity to human recombinant TRX-1 assessed as change in protein configuration at 0.1 mM by MALDITOF mass spectrometry
Active and inactive are the calls of the source. The calls are words filed in the database; no cut-off is given here.
Returns: one label drawn from t = active, f = inactive

The following compounds have reported results that may help.
{"compound": "CC(C)=CCC/C(C)=C/Cc1c(O)c(CC=C(C)C)c2c(c1O)C(=O)C1=C[C@@H]3C[C@H]4C(C)(C)O[C@@](C/C=C(/C)C(=O)O)(C3=O)[C@@]14O2", "classAssignment": "t"}
{"compound": "CC(C)=CCC[C@]1(C)C=Cc2c(O)c3c(c(CC=C(C)C)c2O1)O[C@]12C(C3=O)[C@H](S(=O)(=O)O)[C@@H]3C[C@H]1C(C)(C)O[C@@]2(C/C=C(/C)C(=O)O)C3=O (stereo partly specified)", "classAssignment": "f"}

[ask] What did the test return for CC(C)=CCC[C@]1(C)C=Cc2c(O)c3c(c(CC=C(C)C)c2O1)O[C@]12C(C3=O)[C@@H](S(=O)(=O)O)[C@@H]3C[C@H]1C(C)(C)O[C@@]2(C/C=C(/C)C(=O)O)C3=O (stereo partly specified) ?
[reply] f

[ask] What did the test return for CC(C)=CCC[C@]1(C)C=Cc2c(O)c3c(c(CC=C(C)C)c2O1)O[C@]12C(C3=O)C(O)[C@@H]3C[C@H]1C(C)(C)O[C@@]2(C/C=C(/C)C(=O)O)C3=O (stereo partly specified) ?
[reply] f

[ask] What did the test return for CC(C)=CCC[C@]1(C)C=Cc2c(O)c3c(c(CC=C(C)C)c2O1)O[C@]12C(=C[C@@H]4C[C@H]1C(C)(C)O[C@@]2(C/C=C(/C)C(=O)O)C4=O)C3=O [GAMBOGIC ACID] ?
[reply] t

[ask] What did the test return for CC(C)=CCC[C@]1(C)C=Cc2c(O)c3c(c(CC=C(C)C)c2O1)O[C@]12C(C[C@@H]4C[C@H]1C(C)(C)O[C@@]2(C/C=C(/C)C(=O)O)C4=O)C3=O (stereo partly specified) ?
[reply] f
